experiment: Pharmacokinetics: plasma concentration-time curve; assay type: in vivo; settings: both sexes, rat, plasma, oral; SD rats, gastric lavage, 50, 10 and 2 mg/kg; read-out: bioavailability
READOUT_TYPE: bioavailability (%)
Numbers only, in %.

Query string: Entry Cc1cc(OC(c2ccccc2)c2nn(-c3ccc(C(F)(F)F)cc3)c(=O)n2C)ccc1OCC(=O)O (stereo not shown) [Compound A-1] has what bioavailability?
Result string: 15

* * *

target: PPARδ (Homo sapiens, UniProt Q03181); assay: In vitro screening of nuclear receptor agonist: luciferase reporter gene assay in HepG2 cells; conditions: RXR/PPARδ luciferase reporter gene, 24 h treatment
Sequence (Q03181 whole entry, species assumed): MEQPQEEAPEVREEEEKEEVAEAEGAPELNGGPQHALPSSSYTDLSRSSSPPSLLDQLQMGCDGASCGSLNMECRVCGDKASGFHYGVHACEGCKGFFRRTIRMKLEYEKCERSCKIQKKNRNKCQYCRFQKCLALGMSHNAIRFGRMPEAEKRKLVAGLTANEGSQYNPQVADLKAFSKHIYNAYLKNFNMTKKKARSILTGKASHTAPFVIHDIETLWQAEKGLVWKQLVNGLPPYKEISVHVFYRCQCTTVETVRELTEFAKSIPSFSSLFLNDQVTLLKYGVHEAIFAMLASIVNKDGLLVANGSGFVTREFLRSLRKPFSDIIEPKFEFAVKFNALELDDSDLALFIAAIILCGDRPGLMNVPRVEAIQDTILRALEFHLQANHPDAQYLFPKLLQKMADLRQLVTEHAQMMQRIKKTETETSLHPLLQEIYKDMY
Sequence (P19793 whole entry partner, species assumed): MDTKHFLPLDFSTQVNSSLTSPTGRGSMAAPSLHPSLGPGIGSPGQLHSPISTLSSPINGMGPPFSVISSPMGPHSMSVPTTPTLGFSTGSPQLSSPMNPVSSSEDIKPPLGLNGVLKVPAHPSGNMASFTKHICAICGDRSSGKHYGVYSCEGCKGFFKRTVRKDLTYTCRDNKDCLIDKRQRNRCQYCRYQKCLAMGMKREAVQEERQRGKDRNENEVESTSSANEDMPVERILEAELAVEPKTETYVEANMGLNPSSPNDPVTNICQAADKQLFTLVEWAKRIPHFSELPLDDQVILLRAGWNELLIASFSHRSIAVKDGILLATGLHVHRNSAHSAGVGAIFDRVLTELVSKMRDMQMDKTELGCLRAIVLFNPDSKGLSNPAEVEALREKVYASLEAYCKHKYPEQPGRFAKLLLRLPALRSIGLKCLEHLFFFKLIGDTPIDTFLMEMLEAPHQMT
Give pEC50 for every item shown.
Answers are plain numbers, as −log10 of the molar value.

In the examples that follow, each entry is paired with its recorded pEC50.
Cc1cc(SCC(=O)O)ccc1OCc1nn(-c2ccc(C(F)(F)F)cc2)c(=O)n1C ... 6.19
Cc1cc(SC(C)(C)C(=O)O)ccc1OC(c1ccccc1)c1nn(-c2ccc(C(F)(F)F)cc2)c(=O)n1C (stereo not shown) ... 7.70
CCc1cc(OC(c2ccccc2)c2nn(-c3ccc(C(F)(F)F)cc3)c(=O)n2C)ccc1OCC(=O)O (stereo not shown) ... 6.47
Cc1cc(OC(c2ccccc2)c2nn(-c3ccc(C(F)(F)F)cc3)c(=O)n2C)ccc1SCC(=O)O (stereo not shown) ... 7.00

// switching to the query compound
Query string: What does the data say about its pEC50? Entry: Cc1cc(OCC(=O)O)ccc1OC(c1ccccc1)c1nn(-c2ccc(C(F)(F)F)cc2)c(=O)n1C (stereo not shown)
Result string: 5.68

* * *

experiment: Pharmacokinetics: plasma concentration-time curve; assay type: in vivo; settings: both sexes, rat, plasma, oral; SD rats, gastric lavage, 50, 10 and 2 mg/kg
READOUT_TYPE: half-life

Query string: Quick check: half-life of Cc1cc(OC(c2ccccc2)c2nn(-c3ccc(C(F)(F)F)cc3)c(=O)n2C)ccc1OCC(=O)O (stereo not shown) [Compound A-1] ?
Result string: 26 to 28 h

* * *

molecular target: PPARδ (Homo sapiens); experiment: In vitro screening of nuclear receptor agonist: luciferase reporter gene assay in HepG2 cells; conditions: RXR/PPARδ luciferase reporter gene, 24 h treatment
Give pEC50 for every item shown.
Numbers only, as −log10 of the molar value.

Cc1cc(OC(c2ccccc2)c2nn(-c3ccc(C(F)(F)F)cc3)c(=O)n2C)ccc1OCC(=O)O (stereo not shown) [Compound A-1] ... 6.33

Continue with the compound presented below.
Query string: Dear colleague, I am looking for the recorded pEC50 of the following compound: Cc1cc(SC(c2ccccc2)c2nn(-c3ccc(C(F)(F)F)cc3)c(=O)n2C)ccc1OC(C)C(=O)O (stereo not shown) [Compound A-13]
Result string: 7.70

* * *

biological target: PPARδ (Homo sapiens, UniProt Q03181); assay: In vitro screening of nuclear receptor agonist: luciferase reporter gene assay in HepG2 cells; settings: RXR/PPARδ luciferase reporter gene, 24 h treatment
READOUT_TYPE: log10(EC50) (log10 of the value in nM)
Values below are the log10 of the recorded EC50, with nM as the unit.

Cc1cc(SC(c2ccccc2)c2nn(-c3ccc(C(F)(F)F)cc3)c(=O)n2C)ccc1OC(C)(C)C(=O)O (stereo not shown) [Compound A-16] ... 0.00
Cc1cc(OCC(=O)O)ccc1SC(c1ccccc1)c1nn(-c2ccc(C(F)(F)F)cc2)c(=O)n1C (stereo not shown) [Compound A-7] ... 2.58
Cc1cc(SC(c2ccccc2)c2nn(-c3ccc(C(F)(F)F)cc3)c(=O)n2C)c(C)cc1OCC(=O)O (stereo not shown) [Compound A-10] ... 2.00
Cc1cc(OCc2nn(-c3ccc(C(F)(F)F)cc3)c(=O)n2C)ccc1OCC(=O)O [Compound A-9] ... 3.82
Cc1cc(SC(c2ccccc2)c2nn(-c3ccc(C(F)(F)F)cc3)c(=O)n2C)ccc1OCC(=O)O (stereo not shown) [Compound A-4] ... 1.00

Lab note: next compound to report on.
Query string: What reported log10(EC50) corresponds to Cc1cc(SCc2nn(-c3ccc(C(F)(F)F)cc3)c(=O)n2C)ccc1OCC(=O)O [Compound A-8] on PPARδ (Homo sapiens, UniProt Q03181)?
Result string: 3.48
